This collection of values is drawn from ChEMBL document CHEMBL1777676.

For reference, IC50 measured on Proto-oncogene tyrosine-protein kinase Src (Homo sapiens, UniProt P12931):
Give the quantity in µM, number only.

CN(c1ccccc1)C(c1ccccc1)c1c[nH]c2ccc(Br)cc12 (stereo not given)	71.6

Let us move to another entry and its IC50.
For the compound CN(c1ccccc1)C(c1ccccc1)c1c[nH]c2ccccc12 (stereo not given) , the measured IC50 on Proto-oncogene tyrosine-protein kinase Src (Homo sapiens, UniProt P12931) was 50.6

###

For reference, pIC50 measured on Proto-oncogene tyrosine-protein kinase Src (Homo sapiens, UniProt P12931):
pIC50: −log10 of the molar value.

COc1ccc2[nH]cc(C(c3ccc(C)cc3)N(C)c3ccccc3)c2c1 (stereo not drawn)	< 3.82
CN(c1ccccc1)C(c1ccccc1)c1cn(C)c2ccccc12 (stereo not drawn)	< 3.82

Let us move to another entry and its pIC50.
For the compound Cc1ccc(C(c2c[nH]c3ccc(Br)cc23)N(C)c2ccccc2)cc1 (stereo not drawn) , the measured pIC50 on Proto-oncogene tyrosine-protein kinase Src (Homo sapiens, UniProt P12931) was < 3.82
